Hey, just so you know, these numbers are from ChEMBL document CHEMBL2202960.

- target-desc: Sonic hedgehog protein (Mus musculus)
- Sequence (Q62226 25-198 limits assumed): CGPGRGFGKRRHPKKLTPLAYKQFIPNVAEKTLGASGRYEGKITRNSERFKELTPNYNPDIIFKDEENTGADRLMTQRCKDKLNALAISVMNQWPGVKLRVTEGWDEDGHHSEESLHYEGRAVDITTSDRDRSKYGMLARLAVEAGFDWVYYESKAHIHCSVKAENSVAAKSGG
- protocol-text: Inhibition of recombinant mouse Shh-N expressed in mouse NIH3T3/Gli-luc cells assessed as inhibition of Gli1 expression after 48 hrs by luciferase reporter gene assay
pIC50: −log10 of the molar value.
measurement-type: pIC50

Guide cases for pIC50, answers given:
>>> recorded_result("CCc1cc2c(c(OC)c(C(=O)NC3CCN(C(=O)CO)CC3)n2C)c(=O)n1CC(=O)c1ccccc1")
8.24
>>> recorded_result("CCOc1c(C(=O)NC2CCN(C(=O)CO)CC2)n(C)c2cc(CC)n(CC(=O)c3ccccc3)c(=O)c12")
8.16
>>> recorded_result("COc1c(C(=O)NC2CCN(C(=O)CO)CC2)n(C)c2c3c(n(CC(=O)c4ccccc4)c(=O)c12)CCCC3")
7.02

a = COc1c(C(=O)NC2CCN(C(=O)CO)CC2)n(C)c2cc(C)n(CC(=O)c3ccccc3)c(=O)c12
b = CCc1cc2c(c(OCCF)c(C(=O)NC3CCN(C(=O)CO)CC3)n2C)c(=O)n1CC(=O)c1ccccc1
-- ask Select the item whose pIC50 value is smaller, choosing between a and b . # respond with the chosen item's label
-- reply a
(a: 7.85, b: 8.31)

P = CCc1c(C(=O)NC2CCN(C(=O)CO)CC2)n(C)c2cc(CC)n(CC(=O)c3ccccc3)c(=O)c12
Q = CCc1cc2c(c(OCC(F)F)c(C(=O)NC3CCN(C(=O)CO)CC3)n2C)c(=O)n1CC(=O)c1ccccc1
-- ask Which shows the larger pIC50 value: P or Q ? # respond with the chosen item's label
-- reply Q
(Q: 8.36, P: 7.02)

----------
- protocol-text: Oral bioavailability in dog at 10 mg/kg
- Type: ADME, organism-based, Canis lupus familiaris
- measurement-context: in vivo
measurement-type: bioavailability (%)
The answer is to be given in %; state only the numeric part.

-- ask Look at this molecule and give its reported bioavailability. CCc1cc2c(c(OCC(F)(F)F)c(C(=O)NC3CCN(C(=O)CO)CC3)n2C)c(=O)n1CC(=O)c1ccccc1 [TAK-441]
-- reply 90.3

----------
- protocol-text: Solubility of the compound in lapanese pharmacopoeia second fluid at pH 6.8
- Type: physicochemical
- measurement-context: Japanese Pharmacopoeia second fluid
measurement-type: solubility (µg/mL)

Guide cases for solubility, answers given:
>>> recorded_result("COc1c(C(=O)NC2CCN(C(=O)CO)CC2)n(C)c2c3c(n(CC(=O)c4ccccc4)c(=O)c12)CCCC3")
80
>>> recorded_result("CCc1cc2c(c(OC)c(C(=O)NC3CCN(C(=O)CO)CC3)n2C)c(=O)n1CC(=O)c1ccccc1")
63
>>> recorded_result("CCc1cc2c(c(OCCF)c(C(=O)NC3CCN(C(=O)CO)CC3)n2C)c(=O)n1CC(=O)c1ccccc1")
69

P = COc1c(C(=O)NC2CCN(C(=O)CO)CC2)n(C)c2cc(C)n(CC(=O)c3ccccc3)c(=O)c12
Q = COc1c(C(=O)NC2CCN(C(=O)CO)CC2)n(C)c2c1c(=O)n(CC(=O)c1ccccc1)c1ccccc21
-- ask Which shows the larger solubility value: P or Q ? # respond with the chosen item's label
-- reply P
(P: 77 µg/mL, Q: 8.4 µg/mL)

a = CCOc1c(C(=O)NC2CCN(C(=O)CO)CC2)n(C)c2cc(CC)n(CC(=O)c3ccccc3)c(=O)c12
b = CCc1cc2c(c(OCC(F)F)c(C(=O)NC3CCN(C(=O)CO)CC3)n2C)c(=O)n1CC(=O)c1ccccc1
-- ask Select the item whose solubility value is smaller, choosing between a and b . # respond with the chosen item's label
-- reply a
(a: 58 µg/mL, b: 84 µg/mL)
